Origin of measurements: patent US9145418B2

Observed IC50 for Full-length human PIM2 (Homo sapiens (Human)), reported per entry below.
metric: IC50 (µM)

compound	unit.of.measure	observed
CN1CCN(C[C@@H](NC(=O)C[C@H]2CNC(=O)c3cc(-c4cc(Cl)ccc4F)cn32)C2CCCCC2)CC1 [Compound 26]	µM	0.132
CN(C)C1CCN(C[C@@H](NC(=O)C[C@H]2CNC(=O)c3cc(-c4cccc(Cl)c4)cn32)C2CCCCC2)CC1 [Compound 23]	µM	0.036
CN(C)C1CCN(C[C@@H](NC(=O)C[C@H]2CNC(=O)c3cc(-c4ccnc(F)c4)cn32)C2CCCCC2)CC1 [Compound 10]	µM	0.057

====

Heads up, these compounds all have IC50 values measured for Full-length human PIM1 (Homo sapiens (Human)).
metric: IC50 (nM)

smiles.record	metric	observed
CN(C)C1CCN(C[C@@H](NC(=O)C[C@H]2CNC(=O)c3cc(-c4ccc(F)c(F)c4)cn32)C2CCCCC2)CC1	IC50	8
CN1CCN(C[C@@H](NC(=O)C[C@H]2CNC(=O)c3cc(-c4cc(Cl)ccc4F)cn32)C2CCCCC2)CC1	IC50	2
CN(C)C1CCN(C[C@@H](NC(=O)C[C@H]2CNC(=O)c3cc(-c4cccc(Cl)c4)cn32)C2CCCCC2)CC1	IC50	1
CN1CCN(C[C@@H](NC(=O)C[C@H]2CNC(=O)c3cc(-c4cccc(Cl)c4)cn32)C2CCCCC2)CC1	IC50	1
CN(C)C1CCN(C[C@@H](NC(=O)C[C@H]2CNC(=O)c3cc(-c4ccnc(F)c4)cn32)C2CCCCC2)CC1	IC50	6
